# experiment: Brain/plasma ratio from in vivo pharmacokinetic studies
# assayContext: rodent, brain and plasma; in vivo pharmacokinetic studies in rodents; read-out: B/P ratio (brain/plasma ratio)
endpointLabel: Kp

(a) CN1C(=O)[C@@H](NC(=O)c2cc(Oc3ccccc3)ccn2)COc2ccc(C#CC3COC3)nc21
(b) CN1C(=O)[C@@H](NC(=O)c2cc(Oc3ccccc3)ccn2)CCc2ccc(C#CC3COC3)nc21
input: Which is greater in Kp, the first item a or the second item b ? Select an item and report its label.
output: a

====

# experiment: Brain free fraction in vitro
# Assay type: in vitro ADME
# assayContext: rodent brain in vitro
# Excerpt: Certain embodiments of the invention provide for compound, compounds or compositions thereof to traverse the blood-brain barrier. […] Brain penetration may be assessed by evaluating brain/plasma ratio (B/P) as measured through in vivo pharmacokinetic studies in rodents and determining free fraction in rodent brain in vitro. […] Without being limited to theory, it is believed that compounds with higher brain/plasma partition ratios may be more pharmacologically active against neurological disorders. […]
endpointLabel: fraction unbound

Sample records with fraction unbound:
CN1C(=O)[C@@H](NC(=O)c2cc(Oc3ccccc3)ccn2)COc2ccc(C#CC(C)(N)C(F)(F)F)nc21 (stereo partly shown)
0.0089
CN1C(=O)[C@@H](NC(=O)c2cc(Oc3ccccc3)ccn2)COc2ccc(C#CC(C)(C)O)nc21
0.027
CN1C(=O)[C@@H](NC(=O)c2cc(Oc3cccc(F)c3)ccn2)COc2ccc(C#CC(C)(C)O)nc21
0.0219
CN1C(=O)[C@@H](NC(=O)c2cc(Oc3ccccc3)ccn2)CCc2ccc(C#CC3COC3)nc21
0.0184
CN1C(=O)[C@@H](NC(=O)c2cc(Oc3ccccc3)ccn2)COc2ccc(C#CC(O)C(F)(F)F)nc21 (stereo partly shown)
0.0057

(a) CN1C(=O)[C@@H](NC(=O)c2cc(Oc3ccccc3)ccn2)CCc2ccc(C#CC(C)(O)C(F)(F)F)nc21 (stereo partly shown)
(b) CN1C(=O)[C@@H](NC(=O)c2cc(Oc3ccccc3)ccn2)COc2ccc(C#CC3COC3)nc21
input: Which record shows the lower fraction unbound: the first, a , or the second, b ? Select an item and report its label.
output: a
